Biological target: T1, PUF4 RNA-binding domain (Saccharomyces cerevisiae, UniProt P25339 537-888)
T1 sequence: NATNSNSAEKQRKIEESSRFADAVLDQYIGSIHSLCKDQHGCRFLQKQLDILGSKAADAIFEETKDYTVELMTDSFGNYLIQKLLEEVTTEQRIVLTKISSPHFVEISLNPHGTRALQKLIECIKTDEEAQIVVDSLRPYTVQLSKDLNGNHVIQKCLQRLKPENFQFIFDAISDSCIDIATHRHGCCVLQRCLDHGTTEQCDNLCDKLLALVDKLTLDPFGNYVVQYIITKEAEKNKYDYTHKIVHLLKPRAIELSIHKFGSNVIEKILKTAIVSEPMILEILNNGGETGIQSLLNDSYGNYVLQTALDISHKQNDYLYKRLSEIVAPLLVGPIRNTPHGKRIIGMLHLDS
Experiment: Mg; RNA-MaP; 20 mM Na-HEPES pH 7.4, 30 mM KOAc, 0.75 mM MgCl2, 0.1% Tween-20, 5% glycerol, 0.1 mg/mL BSA, 2 mM DTT; 25 C; 0.0125-409.6 nM protein
Conditions: tags: N-His6-TEV cleaved; C-SNAP kept, Cy3B-labelled; label: tethered on chip by stalled RNA polymerase
Please assign not met whenever Kd is at or above 0.06 µM, and met whenever it is below.

Binder	Class Assignment
Id_ii_S2_P3E.4_K3.3_C3.2_[C-2A]_H3.3_A3.1_F3.1_T3.2_[T9A]_[A10G] (ssRNA) RNA: UUUGAUUAAUAUGAUAUCGUUCUUUCUAUACACUAUAAGUUCUUUCUCGAUAUCAUAUUAAUCUUU	not met

Task item: Given the entry UCUCUUGGUGUAUAUAUUUCUCUU (ssRNA) [Id_ii_S1_P3E.2_K3.1_C3.2_[C-2G]_[T-1G]_H3.1_A3.1_F3.1_T3.2_[A10T]] , would its reported Kd be below 0.06 µM?
Reply: met

Task item: Then this binder: Id_ii_S4_P4E.3_K4.2_C4.2_[C-2G]_H4.2_A4.1_F4.1_T4.2_[G10T] (ssRNA) RNA: UUUGACAACUGAUCGUUCUUUCUGUUAUAUAUUAUUUUCUUUCUCGAUCAGUUGUCUUU
Reply: met

Task item: Then this binder: Id_ii_S2_P3E.4_K3.3_C3.2_[T-1A]_H3.3_A3.1_F3.1_T3.2_[T9C]_[A10T] (ssRNA) RNA: UUUGAUUAAUAUGAUAUCGUUCUUUCUCAACACUAUACUUUCUUUCUCGAUAUCAUAUUAAUCUUU
Reply: not met

Task item: Then this binder: Ia_S4_P4E.1_K4.1_C4.1_H4.1_A4.1_F4.1_[T8C]_T4.1 (ssRNA) RNA: UUUGACAACUGAUCGUUCUUUCUUGUAUAUCAUUCUUUCUCGAUCAGUUGUCUUU
Reply: met

Task item: Then this binder: Ic_S2_P3E.1_K3.1_C3.1_H3.1_A3.1_[A6C]_F3.1_[T7A]_T3.1 (ssRNA) RNA: UUUGAUUAAUAUGAUAUCGUUCUUUCUUGUAUCAAUUCUUUCUCGAUAUCAUAUUAAUCUUU
Reply: not met

Task item: Then this binder: Id_ii_S4_P4E.2_K4.1_C4.2_[T-1C]_H4.1_A4.1_F4.1_T4.2_[G10A]_[T11A] (ssRNA) RNA: UUUGACAACUGAUCGUUCUUUCUCCUGUAUAUUAAAUUCUUUCUCGAUCAGUUGUCUUU
Reply: met
